System: solid tumor cell lines
Experiment: 3-day proliferation assay (CellTiter-Glo)
Assay type: cell-based, human
Settings: Homo sapiens, NCI-H630, NCIH630, Lung
measurement_label: pIC50
Numbers only, as −log10 of the molar value.

compound: Cn1ncc(Cl)c1-c1cc(C(=O)N[C@H](CN)Cc2ccc(F)c(F)c2)oc1Cl [GSK2141795]
pIC50: 5.51

Turning now to a further record.
Problem: # query: pIC50 of entry Cn1ncc(Cl)c1-c1cc(C(=O)N[C@H](CN)Cc2cccc(F)c2)sc1Cl [GSK2110183]
Solution: 5.23

---

System: pGSK-3β in BT474
Experiment: phospho-GSK3β ELISA
Type: cell-based
Settings: Homo sapiens, BT-474; BT474, 1 h, mean ± std dev
Kindly supply the reported IC50 values for the records listed here.
A complete answer gives the number and then names the unit.

compound: Cn1ncc(Cl)c1-c1cc(C(=O)N[C@H](CN)Cc2ccc(F)c(F)c2)oc1Cl [GSK2141795]
assay_system: pGSK-3β in BT474
IC50: 143 nM

Turning now to a further record.
Problem: # query: IC50 of entry Cn1ncc(Cl)c1-c1cc(C(=O)N[C@H](CN)Cc2cccc(F)c2)sc1Cl [GSK2110183]
Solution: 316 nM

---

Target: PKCη (Homo sapiens, UniProt P24723)
Sequence (P24723 whole entry): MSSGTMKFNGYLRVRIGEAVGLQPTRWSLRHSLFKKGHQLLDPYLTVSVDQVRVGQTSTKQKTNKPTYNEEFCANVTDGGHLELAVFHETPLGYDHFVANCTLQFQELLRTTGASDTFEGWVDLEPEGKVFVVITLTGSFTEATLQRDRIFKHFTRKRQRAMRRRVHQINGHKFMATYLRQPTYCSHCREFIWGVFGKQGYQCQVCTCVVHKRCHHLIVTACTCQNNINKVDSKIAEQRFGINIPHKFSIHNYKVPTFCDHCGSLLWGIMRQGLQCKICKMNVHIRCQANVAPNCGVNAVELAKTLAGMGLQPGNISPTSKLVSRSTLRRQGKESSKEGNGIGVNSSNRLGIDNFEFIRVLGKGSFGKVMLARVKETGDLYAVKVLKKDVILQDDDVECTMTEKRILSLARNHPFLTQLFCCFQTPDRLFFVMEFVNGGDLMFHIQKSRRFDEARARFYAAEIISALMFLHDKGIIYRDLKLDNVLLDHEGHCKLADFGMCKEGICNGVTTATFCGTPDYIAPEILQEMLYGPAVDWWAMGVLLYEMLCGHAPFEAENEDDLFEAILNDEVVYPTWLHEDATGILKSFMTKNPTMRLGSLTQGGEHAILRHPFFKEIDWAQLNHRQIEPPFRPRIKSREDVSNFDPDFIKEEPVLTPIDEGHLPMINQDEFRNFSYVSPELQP
Experiment: Kinase IC50 assay
Format: biochemical
Kindly supply the reported IC50 values for the records listed here.
Numbers only, in nM.

molecule: Cn1ncc(Cl)c1-c1cc(C(=O)N[C@H](CN)Cc2ccc(F)c(F)c2)oc1Cl [GSK2141795]
value_reported: 49

Turning now to a further record.
Problem: # query: IC50 of entry Cn1ncc(Cl)c1-c1cc(C(=O)N[C@H](CN)Cc2cccc(F)c2)sc1Cl [GSK2110183]
Solution: 210

---

Kindly supply the reported IC50 values for the records listed here.
Test system: solid tumor cell lines
Test: 3-day proliferation assay (CellTiter-Glo)
Type: cell-based, human
Settings: Homo sapiens, NCI-H2052, NCIH2052, Lung

compound: Cn1ncc(Cl)c1-c1cc(C(=O)N[C@H](CN)Cc2ccc(F)c(F)c2)oc1Cl [GSK2141795]
IC50: 1.59 µM

Turning now to a further record.
Problem: # query: IC50 of entry Cn1ncc(Cl)c1-c1cc(C(=O)N[C@H](CN)Cc2cccc(F)c2)sc1Cl [GSK2110183]
Solution: 4.75 µM

---

Tested on: hematological tumor cell lines
Experiment: 3-day proliferation assay (CellTiter-Glo)
Type: cell-based, human
Conditions: Homo sapiens, T-cell, 8E5 cell line; ALL; T Cell
measurement_label: IC50 (nM)
Answers are plain numbers, in nM.

compound: Cn1ncc(Cl)c1-c1cc(C(=O)N[C@H](CN)Cc2ccc(F)c(F)c2)oc1Cl [GSK2141795]
assay_system: hematological tumor cell lines
value_reported: 31

Turning now to a further record.
Problem: # query: IC50 of entry Cn1ncc(Cl)c1-c1cc(C(=O)N[C@H](CN)Cc2cccc(F)c2)sc1Cl [GSK2110183]
Solution: 43

---

Test system: solid tumor cell lines
Test: 3-day proliferation assay (CellTiter-Glo)
Type: cell-based, human
Conditions: Homo sapiens, CCF-STTG1, CCFSTTG1, Brain
Kindly supply the reported IC50 values for the records listed here.
Give bare numbers, in nM.

compound_string: Cn1ncc(Cl)c1-c1cc(C(=O)N[C@H](CN)Cc2ccc(F)c(F)c2)oc1Cl
value_reported: 164

Turning now to a further record.
Problem: For solid tumor cell lines, provide IC50 of Cn1ncc(Cl)c1-c1cc(C(=O)N[C@H](CN)Cc2cccc(F)c2)sc1Cl please.
Solution: 673

---

Kindly supply the reported IC50 values for the records listed here.
Tested on: pPRAS40 in BT474
Assay: phospho-PRAS40 ELISA
Type: cell-based
Details: Homo sapiens, BT-474; BT474, mean ± std dev
Give bare numbers, in nM.

molecule: Cn1ncc(Cl)c1-c1cc(C(=O)N[C@H](CN)Cc2cccc(F)c2)sc1Cl [GSK2110183]
unit_text: nM
IC50: 121

Turning now to a further record.
Problem: # query: IC50 of entry Cn1ncc(Cl)c1-c1cc(C(=O)N[C@H](CN)Cc2ccc(F)c(F)c2)oc1Cl [GSK2141795]
Solution: 39

---

Kindly supply the reported IC50 values for the records listed here.
System: solid tumor cell lines
Assay: 3-day proliferation assay (CellTiter-Glo)
Type: cell-based, human
Conditions: Homo sapiens, Hs746T, Stomach
Give bare numbers, in nM.

compound_string: Cn1ncc(Cl)c1-c1cc(C(=O)N[C@H](CN)Cc2cccc(F)c2)sc1Cl
IC50 [nM]: 2070

Problem: # query: IC50 of entry Cn1ncc(Cl)c1-c1cc(C(=O)N[C@H](CN)Cc2ccc(F)c(F)c2)oc1Cl
Solution: 1090

---

Test system: solid tumor cell lines
Assay: 3-day proliferation assay (CellTiter-Glo)
Assay type: cell-based, human
Conditions: Homo sapiens, U-251, U251, Brain
measurement_label: IC50 (nM)
One number for each entry, in nM.

compound_string: Cn1ncc(Cl)c1-c1cc(C(=O)N[C@H](CN)Cc2ccc(F)c(F)c2)oc1Cl
IC50 [nM]: 1220

Problem: # query: IC50 of entry Cn1ncc(Cl)c1-c1cc(C(=O)N[C@H](CN)Cc2cccc(F)c2)sc1Cl
Solution: 2430

---

Target: PKCα (Homo sapiens)
Experiment: Kinase IC50 assay
Assay type: biochemical
measurement_label: IC50

compound_string: Cn1ncc(Cl)c1-c1cc(C(=O)N[C@H](CN)Cc2cccc(F)c2)sc1Cl
assay_system: PKCα (Homo sapiens)
IC50: > 1000 nM

Turning now to a further record.
Problem: # query: IC50 of entry Cn1ncc(Cl)c1-c1cc(C(=O)N[C@H](CN)Cc2ccc(F)c(F)c2)oc1Cl
Solution: > 1000 nM

---

Kindly supply the reported pIC50 values for the records listed here.
System: hematological tumor cell lines
Test: 3-day proliferation assay (CellTiter-Glo)
Assay type: cell-based, human
Details: Homo sapiens, CML-T1, CML-T1 cell line; CML; T Cell
Numbers only, as −log10 of the molar value.

compound: Cn1ncc(Cl)c1-c1cc(C(=O)N[C@H](CN)Cc2cccc(F)c2)sc1Cl [GSK2110183]
assay_system: hematological tumor cell lines
pIC50: 5.29

Problem: # query: pIC50 of entry Cn1ncc(Cl)c1-c1cc(C(=O)N[C@H](CN)Cc2ccc(F)c(F)c2)oc1Cl [GSK2141795]
Solution: 5.28

---

Test system: hematological tumor cell lines
Test: 3-day proliferation assay (CellTiter-Glo)
Format: cell-based, human
Conditions: Homo sapiens, B-cell, MC/CAR cell line; Multiple Myeloma; B Cell
measurement_label: pIC50
One number for each entry, as −log10 of the molar value.

Problem: # query: pIC50 of entry Cn1ncc(Cl)c1-c1cc(C(=O)N[C@H](CN)Cc2ccc(F)c(F)c2)oc1Cl
Solution: 7.40

---

Tested on: solid tumor cell lines
Assay: 3-day proliferation assay (CellTiter-Glo)
Assay type: cell-based, human
Conditions: Homo sapiens, RKO, Colon
Experimental: Various tumor cell lines were obtained from different sources including; the American Type Cell Culture Collection, the Developmental Therapeutics Program, the National Cancer Institute, the German Resource Center for Biological Material and the European Collection of Animal Cell Cultures. […] Cell growth was determined relative to untreated (DMSO) controls. EC50's were calculated from inhibition curves using a 4- or 6-parameter fitting algorithm in the Assay Client application.
Kindly supply the reported IC50 values for the records listed here.
Give bare numbers, in µM.

compound_string: Cn1ncc(Cl)c1-c1cc(C(=O)N[C@H](CN)Cc2cccc(F)c2)sc1Cl
IC50 (µM): 1.46

Turning now to a further record.
Problem: For solid tumor cell lines, provide IC50 of Cn1ncc(Cl)c1-c1cc(C(=O)N[C@H](CN)Cc2ccc(F)c(F)c2)oc1Cl please.
Solution: 0.676

---

Test system: solid tumor cell lines
Assay: 3-day proliferation assay (CellTiter-Glo)
Format: cell-based, human
Settings: Homo sapiens, NCI-H187, NCIH187, Lung
measurement_label: pIC50
Numbers only, as −log10 of the molar value.

I'm hoping you can list pIC50 for every compound here, please.
1. Cn1ncc(Cl)c1-c1cc(C(=O)N[C@H](CN)Cc2ccc(F)c(F)c2)oc1Cl [GSK2141795]
2. Cn1ncc(Cl)c1-c1cc(C(=O)N[C@H](CN)Cc2cccc(F)c2)sc1Cl [GSK2110183]

Solution:
1: 6.94; 2: 6.58

---

Kindly supply the reported pIC50 values for the records listed here.
System: hematological tumor cell lines
Experiment: 3-day proliferation assay (CellTiter-Glo)
Format: cell-based, human
Details: Homo sapiens, JM1, JM1 cell line; Burkitt's Lymphoma; pre-B Cell
One number for each entry, as −log10 of the molar value.

molecule: Cn1ncc(Cl)c1-c1cc(C(=O)N[C@H](CN)Cc2ccc(F)c(F)c2)oc1Cl [GSK2141795]
assay_system: hematological tumor cell lines
measurement_label: pIC50
value_reported: 6.67

Turning now to a further record.
Problem: For hematological tumor cell lines, provide pIC50 of Cn1ncc(Cl)c1-c1cc(C(=O)N[C@H](CN)Cc2cccc(F)c2)sc1Cl [GSK2110183] please.
Solution: 6.12
